# System: Huh7
# Measurement notes: SRB cytotoxicity assay, Huh7
# Assay type: cell-based
# Conditions used: Homo sapiens, Huh-7, 72 h, read-out: IC50 (μM) ± S.D. Huh7
Catalogue of compounds with associated IC50

[[record]]
compound = "O=C(c1cc(-c2c[nH]c3ccccc23)n[nH]1)N1CCCCC1 [Compound 19]"
target_system = "Huh7"
value = "19.1 µM"

[[record]]
compound = "COc1cc(CNC(=O)c2cc(-c3c[nH]c4ccccc34)n[nH]2)cc(OC)c1OC [Compound 13]"
target_system = "Huh7"
value = "17.2 µM"

[[record]]
compound = "O=C(NCc1cccnc1)c1cc(-c2c[nH]c3ccccc23)n[nH]1 [Compound 25]"
target_system = "Huh7"
value = "29.1 µM"


Now take the following compound into account.
[in] Quickly give me recorded IC50 for COc1ccc(NC(=O)c2cc(-c3c[nH]c4ccccc34)n[nH]2)cc1 [Compound 15]
[out] 8.6 µM

These measurements were taken from paper PMC10208593.
